assayed.target: PAD2 (Homo sapiens)
Construct: made in house
Sequence (Q9Y2J8 whole entry): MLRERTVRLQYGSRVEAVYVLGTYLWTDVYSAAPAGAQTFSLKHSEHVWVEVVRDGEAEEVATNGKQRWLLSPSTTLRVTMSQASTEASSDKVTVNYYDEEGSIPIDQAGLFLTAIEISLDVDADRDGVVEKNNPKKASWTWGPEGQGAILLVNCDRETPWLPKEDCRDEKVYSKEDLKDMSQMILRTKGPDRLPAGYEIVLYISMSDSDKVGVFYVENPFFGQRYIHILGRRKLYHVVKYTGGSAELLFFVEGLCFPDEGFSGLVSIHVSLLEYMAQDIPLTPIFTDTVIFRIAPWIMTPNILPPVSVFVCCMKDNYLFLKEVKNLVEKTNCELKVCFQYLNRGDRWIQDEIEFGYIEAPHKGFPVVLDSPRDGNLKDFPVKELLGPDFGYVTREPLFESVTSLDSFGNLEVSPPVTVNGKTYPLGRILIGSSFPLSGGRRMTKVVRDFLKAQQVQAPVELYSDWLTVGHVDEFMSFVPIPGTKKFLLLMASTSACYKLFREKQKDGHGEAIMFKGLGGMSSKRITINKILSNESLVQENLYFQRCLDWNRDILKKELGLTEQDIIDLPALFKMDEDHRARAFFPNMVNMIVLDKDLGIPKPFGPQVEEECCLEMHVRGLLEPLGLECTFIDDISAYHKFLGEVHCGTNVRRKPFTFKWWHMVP
protocol.description: Inactivation kinetics, PAD2
Format: biochemical
recorded.conditions: kinact/KI relative to least inhibited isozyme (1.0)
# if value of Fold PAD2 Selectivity reaches 10 fold, tag Criterion met; if it stays below, tag Criterion not met

Recorded results for 5 compounds are shown here.
compound	group.label
CC(C)n1c([C@H](CCCNC(=N)CCl)NC(=O)c2cccc3c2C(=O)NC3)nc2ccccc21 [Compound 7h]	Criterion not met
COc1ccc2c(c1)nc([C@H](CCCNC(=N)CF)NC(=O)c1cccc3c1C(=O)NC3)n2C [Compound 7o]	Criterion met
N=C(CCl)NCCC[C@H](NC(=O)c1ccc(-c2ccccc2)cc1)c1nc2cc(F)c(F)cc2[nH]1 [Compound 5r]	Criterion not met
CCN1Cc2cccc(C(=O)N[C@@H](CCCNC(=N)CCl)c3nc4cc(OC)ccc4n3CC)c2C1=O [Compound 8z]	Criterion met
N=C(CF)NCCC[C@H](NC(=O)c1ccc(-c2ccccc2)cc1)c1nc2cc(F)c(F)cc2[nH]1 [Compound 5q]	Criterion not met

[in] Does the compound CCN1Cc2cccc(C(=O)N[C@@H](CCCNC(=N)CCl)c3nc4ccccc4n3CC)c2C1=O [Compound 8f] have recorded Fold PAD2 Selectivity that is 10 fold or more?
[out] Criterion met

[in] Does the compound CC(C)n1c([C@H](CCCNC(=N)CF)NC(=O)c2cccc3c2C(=O)NC3)nc2ccccc21 [Compound 7g] have recorded Fold PAD2 Selectivity that is 10 fold or more?
[out] Criterion met

----------
Form field: kinact/KI (one value per entry).
assayed.target: PAD1 (Homo sapiens, UniProt Q9ULC6)
Construct: made in house
Sequence (Q9ULC6 1-663): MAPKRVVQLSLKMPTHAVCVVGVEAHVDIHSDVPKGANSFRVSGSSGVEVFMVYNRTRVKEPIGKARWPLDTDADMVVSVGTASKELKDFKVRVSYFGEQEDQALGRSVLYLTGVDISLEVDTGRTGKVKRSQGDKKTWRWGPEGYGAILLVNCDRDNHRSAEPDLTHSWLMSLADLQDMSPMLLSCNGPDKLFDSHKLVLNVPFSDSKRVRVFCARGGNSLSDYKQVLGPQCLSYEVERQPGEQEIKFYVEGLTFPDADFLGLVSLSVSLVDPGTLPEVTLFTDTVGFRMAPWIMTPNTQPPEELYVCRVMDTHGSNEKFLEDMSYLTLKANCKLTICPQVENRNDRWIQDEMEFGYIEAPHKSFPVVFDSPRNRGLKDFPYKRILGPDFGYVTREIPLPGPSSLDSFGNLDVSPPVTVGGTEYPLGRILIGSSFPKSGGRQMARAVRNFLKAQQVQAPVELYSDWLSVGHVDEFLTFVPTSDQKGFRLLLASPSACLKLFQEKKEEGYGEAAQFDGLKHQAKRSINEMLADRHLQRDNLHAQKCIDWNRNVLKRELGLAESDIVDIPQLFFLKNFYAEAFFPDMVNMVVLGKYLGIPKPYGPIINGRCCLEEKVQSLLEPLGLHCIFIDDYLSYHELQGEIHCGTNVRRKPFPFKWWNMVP
protocol.description: Inactivation kinetics, PAD1
Assay type: biochemical
recorded.conditions: a: single kobs determined; b: from a linear fit
Method: Inactivation kinetic parameters were determined by incubating PAD1, 2, or 4 (2.0 μM) or PAD3 (5.0 μM) in a pre-warmed (10 min; 37° C.) inactivation mixture (50 mM HEPES, 10 mM CaCl2, and 2 mM DTT, pH 7.6, with a final volume of 60 μL) containing various concentrations of inhibitor. […] After 15 min, reactions were quenched in liquid nitrogen and citrulline production quantified using the COLDER assay. […]
Give the value; after it, write the unit.

smiles.data	kinact/KI
COc1ccc2[nH]c([C@H](CCCNC(=N)CF)NC(=O)c3cccc4c3C(=O)NC4)nc2c1	974 M⁻¹ s⁻¹
CCN1Cc2cccc(C(=O)N[C@@H](CCCNC(=N)CF)c3nc4ccccc4n3C)c2C1=O	308 M⁻¹ s⁻¹
CCN1Cc2cccc(C(=O)N[C@@H](CCCNC(=N)CF)c3nc4cc(OC)ccc4n3CC)c2C1=O	253 M⁻¹ s⁻¹

[in] Give recorded kinact/KI with PAD1 (Homo sapiens, UniProt Q9ULC6) for the following molecule: CCN1Cc2cccc(C(=O)N[C@@H](CCCNC(=N)CF)c3nc4c(OC)cccc4[nH]3)c2C1=O
[out] 1340 M⁻¹ s⁻¹

[in] Give recorded kinact/KI with PAD1 (Homo sapiens, UniProt Q9ULC6) for the following molecule: Cn1c([C@H](CCCNC(=N)CF)NC(=O)c2ccccc2C(=O)OC(C)(C)C)nc2ccccc21
[out] 41.2 M⁻¹ s⁻¹

[in] Give recorded kinact/KI with PAD1 (Homo sapiens, UniProt Q9ULC6) for the following molecule: Cn1c([C@H](CCCNC(=N)CF)NC(=O)c2ccc(-c3ccccc3)cc2)nc2ccccc21
[out] 21.3 M⁻¹ s⁻¹

[in] Give recorded kinact/KI with PAD1 (Homo sapiens, UniProt Q9ULC6) for the following molecule: COc1cccc2c1nc([C@H](CCCNC(=N)CCl)NC(=O)c1cccc3c1C(=O)N(C(C)C)C3)n2C
[out] 732 M⁻¹ s⁻¹
